Recorded half-life, one value per entry.
- Protocol text: Plasma pharmacokinetics in rats, single intravenous or oral administration
- Format: in vivo, rat (male Wistar)
- Assay conditions: male, Wistar, rat, plasma; rats, intravenous 0.25 mg/kg
Returns: string containing the number followed by the unit.

Molecular string: COc1c(NC(=O)Nc2ccc(Oc3ccnc(Nc4ccccc4)c3)c3ccccc23)cc(C(C)(C)C)cc1C(=O)NC1COC1
half-life: 72 min

### Prompt Note half-life for the compound shown: "COc1cc(Nc2cc(Oc3ccc(NC(=O)Nc4cc(C(C)(C)C)cc(NS(C)(=O)=O)c4OC)c4ccccc34)ccn2)cc(C(=O)NCCN2CCOCC2)c1"
### Response 48 min

### Prompt Could you please provide reported half-life for "COCCOCCOCCNC(=O)c1cc(Nc2cc(Oc3ccc(NC(=O)Nc4cc(C(C)(C)C)cc(NS(C)(=O)=O)c4OC)c4ccccc34)ccn2)cc(OC)c1" ? Thanks!
### Response 12 min

### Prompt Tell us which half-life value is on record for "CNC(=O)c1cc(C(C)(C)C)cc(NC(=O)Nc2ccc(Oc3ccnc(Nc4cc(OC)cc(OCCOCCOCCOC)c4)c3)c3ccccc23)c1OC"
### Response 42 min

### Prompt Name the recorded half-life of the item "COCCOCCOCCOc1cc(Nc2nccc(Oc3ccc(NC(=O)Nc4cc(C(C)(C)C)cc(NS(C)(=O)=O)c4OC)c4ccccc34)n2)cc(OC)c1" in your answer.
### Response 48 min

###

In what follows, each item is paired with its pIC50 for GSK 3α (Homo sapiens (Human)).
Expect pIC50 as a plain number equal to -log10 of the molar concentration.

In the examples that follow, each entry is paired with its recorded pIC50.
Compound: COCCOCCOCCOc1cc(Nc2nccc(Oc3ccc(NC(=O)Nc4cc(C(C)(C)C)cc(C(=O)NC5COC5)c4OC)c4ccccc34)n2)cc(OC)c1 [Example 51]
pIC50: 6.01

Compound: COCCOCCOCCOc1cc(Nc2nccc(Oc3ccc(NC(=O)Nc4cc(C(C)(C)C)cc(NS(C)(=O)=O)c4OC)c4ccccc34)n2)cc(OC(F)F)c1 [Example 17]
pIC50: 5.26

Compound: COc1c(NC(=O)Nc2ccc(Oc3ccnc(NCc4ccccn4)c3)c3ccccc23)cc(C(C)(C)C)cc1C(=O)NC1COC1 [Example 80]
pIC50: 5.90

### Prompt Check the records and state pIC50 for COCCOCCOCCOc1cc(Nc2nccc(Oc3ccc(NC(=O)Nc4cc(C(C)(C)C)cc(NS(C)(=O)=O)c4OC)c4ccccc34)n2)cc(OC)c1 [Example 4]
### Response 5.58

### Prompt Supply reported pIC50 belonging to this compound: COCCOCCOCCOCCOCCOCCOCCNC(=O)c1cc(Nc2nccc(Oc3ccc(NC(=O)Nc4cc(C(C)(C)C)cc(NS(C)(=O)=O)c4OC)c4ccccc34)n2)cc(OC)c1 [Example 40]
### Response 6.42

### Prompt Given COc1c(NC(=O)Nc2ccc(Oc3ccnc(Nc4ccccc4)c3)c(F)c2F)cc(C(C)(C)C)cc1C(=O)NC1COC1 [Example 82] , respond with its pIC50.
### Response 6.74

###

Below, each of the compounds is paired with its reported % Parent Remaining value.
- Protocol text: Hydrolytic stability study
- Assay type: physicochemical
- Assay conditions: DMSO:water (3:1), 1 mg/mL, 60° C., 1440 min
- Description: Chemical stability of compounds of the invention was assessed in a mixture of DMSO and water (3:1) at a test compound concentration of 1 mg/mL Sample Preparation • A 1.0 mg sample of test compound was dissolved in 750 μL of DMSO. Water (250 μL) was added slowly, ensuring no precipitation occurred. Recording Stability • A 50 μL aliquot of the test solution was removed and analysed in duplicate by 5 μL HPLC injections. […]
Numeric answer only, unit % assumed.

Compound: COc1c(NC(=O)Nc2ccc(Oc3ccnc(Nc4ccccc4)c3)c3ccccc23)cc(C(C)(C)C)cc1C(=O)NC1COC1
% Parent Remaining, %: 99
--
Compound: COc1cc(Nc2cc(Oc3ccc(NC(=O)Nc4cc(C(C)(C)C)cc(NS(C)(=O)=O)c4OC)c4ccccc34)ccn2)cc(C(=O)NCCN2CCOCC2)c1
% Parent Remaining, %: 102
--
Compound: C#Cc1cc(Nc2nccc(Oc3ccc(NC(=O)Nc4cc(C(C)C)nn4-c4ccc(C)cc4)c4ccccc34)n2)cc(C(=O)NCCN2CCOCC2)c1 [Reference Compound B, reference compound]
% Parent Remaining, %: 36

### Prompt Output measured % Parent Remaining for this item: "COCCOCCOCCOc1cc(Nc2nccc(Oc3ccc(NC(=O)Nc4cc(C(C)(C)C)cc(NS(C)(=O)=O)c4OC)c4ccccc34)n2)cc(OC)c1"
### Response 102

### Prompt Could you please provide reported % Parent Remaining for "C#Cc1cc(Nc2nccc(Oc3ccc(NC(=O)Nc4cc(C(C)(C)C)cc(NS(C)(=O)=O)c4OC)c4ccccc34)n2)cc(C(=O)NCCOCCOCCOC)c1" ? Thanks!
### Response 100
